# Assay protocol: soluble on expression in E. coli; label from the status in PepcDB or PDB records
Quantity measured: soluble on expression in E. coli

Sequence entry	Quantity measured	Result
MDLVKDVKRELSFSELKGKRVSIDGYNALYQFLAAIRQPDGTPLMDSQGRVTSHLSGLFYRTINILEEGVIPIYVFDGKPPEQKSEELERRRKAKEEAERKLERAKSEGKIEELRKYSQAILRLSNIMVEESKKLLRAMGIPIVQAPSEGEAEAAYLNKLGLSWAAASQDYDAILFGAKRLVRNLTITGKRKLPNKDVYVEIKPELIETEILLKKLGITREQLIDIGILIGTDYNPDGIRGIGPERALKIIKKYGKIEKAMEYGEISKKDINFNIDEIRGLFLNPQVVKPEEALDLNEPNGEDIINILVYEHNFSEERVKNGIERLTKAIKEAKGASRQTGLDRWF	soluble on expression in E. coli	soluble
MAHHHHHHMPPFFEARAEKLMLAAQEECRLLAAQLEKSRAARAASTCGPQGKIRAAPATAPVAATSPPSPRRTYSAATATVAVKGLSIGSSTSTSPDRAGSPSAAPPSASPARVVIPTAATHKEGTLLHLVRGSGLFGSGSRSFVPHYIAVSGSAGISWYASEAEYRQNPSRPLGHADFWIETFNSRGSRFKKAAVCWPLILPDDCPEAKDANKTYFAVDYYTPDEAREQVVLAASSPAERDEWVQLLTKYIDLYLAPRAESEELQHIPRGAEVPLHRSGVIEGEAPGGNIL	soluble on expression in E. coli	soluble

====

# Assay protocol: soluble on expression in E. coli; label from the status in PepcDB or PDB records
Quantity measured: soluble on expression in E. coli

Sequence entry	soluble on expression in E. coli
METFHWKVRPDMNVVSEPKVVTVKLGDGYEQRRAAGLNNQLSTYSVTIRVRKGEHPSLKAFLERHGGVRAFQWTPPYDWKLIRVVCRKWSASVGALWVTVTADFEQVVN	not soluble
MPKSEIRKLLQEIKKQVDNPGNSSTTEIKKMASEAGIDEQTAEEIYHLLTEFYQAVEEHGGIEKYMHSNISWLKIELELLSACYQIAILEDMKVLDISEMLSLNDLRIFPKTPSQLQNTYYKLKKELIQVEDIPKNKPGRKRKTQKNTKKEKTNIFGKVVPALEHHHHHH	soluble
MGSDKIHHHHHHMVNEKRLLEEFLELVQIDSETKHEAEICKVLKRKFSDLGVDVKEDDTMDITGHGAGNLICTLKGTKQTDTIYFTSHMDTVVPGNGVKPVVENGYVKTDGTTILGADDKAGLAAMFEAIKVLKEENIEHGTIEFIITVGEESGLIGAKALDRPMITASYGYALDSDGKVGNIIVAAPTQAKVRAAIFGKTAHAGVEPEKGISAITIASKAISKMPLGRIDEETTANIGRFEGGTQTNIVCDEVHILAEARSLVPEKMEAQVQKMKAAFEEAAADMGGRAEVEIEVMYPGFKYQDGDQVVEIAKKAAAKIGRPSELQTSGGGSDANVIAGHGIPTVNLAVGYEQIHTKNEKMPIEELVKTAEMVVAIIEEAAK	not soluble
MAHHHHHHMLCRNVSRSYSARRRCRPSVCVAFGALLVEPPQAAYLRRCAVSSRATATAASLSSDHASLSVCKRCEHTTTIATPPERVLTTKEQVDELMDSFAEACELITDAKESVGTTYFADDMEDAEKQTHDVLNRWESLQAALERKGTAEELQKVRNMYDLKIKQLKAELEAVREAGGAG	not soluble
MSLDEIKIEKLKKLDKKALNELIDVYMSGYEGLEEYGGEGRDYARNYIKWCWKKASDGFFVAKVGDKIVGFIVCDKDWFSKYEGRIVGAIHEFVVDKKFQGKGIGRKLLITCLDFLGKYNDTIELWVGEKNYGAMNLYEKFGFKKVGKSGIWVRMIKRQNLEGHHHHHH	soluble

# ---- query sequence ----
Q. # soluble on expression in E. coli lookup, item MSLGIGHPMWVGWCIIIAMRSIPASVESSVLRWARESCGLTEVAAARKLGLPDDRVAAWEVGEVVPTIAQLRKAAEVYKRSLAVFFLSEPPEGFDTLRDFRRLDGAASGQWTPGLHEEFRRAHTQRDFALELADAEDREIPGAWRLPLSGDEADADIAARIRKALIEVSPLPIPVASVDPYEHLNAWVSAIETSGVLVLATRGGKVAIDEMRGMCLYFDELPVIVLNGSDHPRPRLFSLLHEFVHVVLHTEGLCDVIADAHPSTQDRSLEARCNAIAAAVLMPADVVRARPEVIVRSETPSSWDYESLRPVAAHFGVSAEAFLRRLSTLGIVPVEVYRQRRAEFIAAHEDEAEGHHHHHH
A. soluble
